Target: LRRK2 (endogenous, HiBit tagged) (Homo sapiens)
Construct: endogenous in cells; host or cells: HEK293 cells with HiBit knock-in at the endogenous LRRK2 locus, stably expressing firefly luciferase
Sequence (Q5S007 whole entry): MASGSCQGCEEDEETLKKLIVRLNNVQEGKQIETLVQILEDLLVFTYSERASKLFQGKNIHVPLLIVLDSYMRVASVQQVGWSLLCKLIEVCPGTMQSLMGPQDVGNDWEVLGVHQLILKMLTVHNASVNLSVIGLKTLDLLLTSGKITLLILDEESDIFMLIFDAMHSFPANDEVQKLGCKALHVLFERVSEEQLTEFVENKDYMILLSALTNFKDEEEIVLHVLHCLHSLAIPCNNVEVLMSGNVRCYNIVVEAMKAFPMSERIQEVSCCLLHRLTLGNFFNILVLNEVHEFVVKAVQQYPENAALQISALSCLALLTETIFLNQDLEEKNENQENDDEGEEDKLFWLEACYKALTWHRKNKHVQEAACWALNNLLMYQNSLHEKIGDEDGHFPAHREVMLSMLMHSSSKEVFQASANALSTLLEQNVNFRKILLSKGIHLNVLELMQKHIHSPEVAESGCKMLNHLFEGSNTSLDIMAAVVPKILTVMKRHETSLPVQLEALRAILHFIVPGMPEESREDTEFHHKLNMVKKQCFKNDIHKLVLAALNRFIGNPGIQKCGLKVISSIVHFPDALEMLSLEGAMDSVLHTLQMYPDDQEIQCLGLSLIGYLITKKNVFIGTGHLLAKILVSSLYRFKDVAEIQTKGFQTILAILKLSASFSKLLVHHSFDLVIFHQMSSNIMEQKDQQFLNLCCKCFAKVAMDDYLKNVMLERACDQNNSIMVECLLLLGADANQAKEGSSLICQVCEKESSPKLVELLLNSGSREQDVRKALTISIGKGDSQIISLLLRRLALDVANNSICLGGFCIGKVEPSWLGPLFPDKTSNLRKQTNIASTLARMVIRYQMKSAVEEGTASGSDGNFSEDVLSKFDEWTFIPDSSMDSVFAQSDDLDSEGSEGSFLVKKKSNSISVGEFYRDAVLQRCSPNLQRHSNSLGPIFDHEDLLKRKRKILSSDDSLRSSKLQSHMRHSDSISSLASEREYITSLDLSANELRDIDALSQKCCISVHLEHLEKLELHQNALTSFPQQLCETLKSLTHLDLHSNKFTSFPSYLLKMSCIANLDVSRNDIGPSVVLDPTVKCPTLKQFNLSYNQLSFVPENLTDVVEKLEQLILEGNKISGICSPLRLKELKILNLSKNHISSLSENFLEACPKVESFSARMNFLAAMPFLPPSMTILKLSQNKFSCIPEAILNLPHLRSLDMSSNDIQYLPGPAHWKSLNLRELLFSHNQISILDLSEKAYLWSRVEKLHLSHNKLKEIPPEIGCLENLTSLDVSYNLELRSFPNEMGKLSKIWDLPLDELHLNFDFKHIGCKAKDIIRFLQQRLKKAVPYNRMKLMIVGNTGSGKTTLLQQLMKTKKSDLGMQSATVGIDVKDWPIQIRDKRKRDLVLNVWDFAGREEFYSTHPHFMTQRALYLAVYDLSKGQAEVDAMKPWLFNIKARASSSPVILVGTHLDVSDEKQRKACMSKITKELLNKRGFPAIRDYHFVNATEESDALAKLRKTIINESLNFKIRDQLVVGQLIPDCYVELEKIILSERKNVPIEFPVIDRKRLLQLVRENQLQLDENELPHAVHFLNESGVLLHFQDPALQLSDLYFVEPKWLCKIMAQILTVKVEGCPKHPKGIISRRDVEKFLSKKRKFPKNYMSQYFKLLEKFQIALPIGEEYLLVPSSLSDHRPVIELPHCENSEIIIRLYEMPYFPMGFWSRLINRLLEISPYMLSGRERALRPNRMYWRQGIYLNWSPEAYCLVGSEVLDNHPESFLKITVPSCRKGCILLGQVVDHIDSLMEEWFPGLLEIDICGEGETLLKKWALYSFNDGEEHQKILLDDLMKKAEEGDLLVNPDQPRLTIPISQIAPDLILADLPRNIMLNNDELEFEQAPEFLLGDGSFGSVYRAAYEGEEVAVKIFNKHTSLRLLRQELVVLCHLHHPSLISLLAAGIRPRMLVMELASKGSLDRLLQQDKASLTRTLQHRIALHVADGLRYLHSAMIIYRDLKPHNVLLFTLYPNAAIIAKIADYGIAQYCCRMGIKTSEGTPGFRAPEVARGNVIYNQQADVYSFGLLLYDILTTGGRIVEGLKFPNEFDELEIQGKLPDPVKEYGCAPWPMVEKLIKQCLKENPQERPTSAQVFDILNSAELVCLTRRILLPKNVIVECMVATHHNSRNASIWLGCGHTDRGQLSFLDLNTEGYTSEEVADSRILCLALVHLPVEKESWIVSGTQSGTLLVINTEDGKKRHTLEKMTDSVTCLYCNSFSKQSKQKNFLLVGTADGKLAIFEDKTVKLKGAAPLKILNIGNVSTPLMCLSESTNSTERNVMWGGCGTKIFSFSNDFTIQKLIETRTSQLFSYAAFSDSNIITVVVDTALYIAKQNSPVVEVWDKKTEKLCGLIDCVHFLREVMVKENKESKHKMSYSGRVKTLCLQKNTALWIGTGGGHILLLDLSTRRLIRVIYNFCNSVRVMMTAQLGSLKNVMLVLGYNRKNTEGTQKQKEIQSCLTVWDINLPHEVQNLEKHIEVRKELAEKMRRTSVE
Experiment: Endogenous LRRK2 degradation assay, endogenous gene C-terminally HiBit-tagged in HEK293 cells (Nano-Glo Dual Luciferase)
Assay type: cell-based
Conditions: endogenous HiBit-tagged LRRK2 in HEK293 cells, 24 hours treatment; read-out: Endogenous WT DC50
Quick reference for DC50 among some compounds

Example compounds with recorded DC50:
Compound	DC50
COc1c(N2CCC(O[C@H]3CC[C@H](CN4CCN(c5cc(-c6n[nH]c7ccc(OC8(C)CC8)cc67)nc(C)n5)CC4)CC3)CC2)ccc2c1CN(C1CCC(=O)NC1=O)C2=O (stereo partly shown)	< 10 nM
CC1(Oc2ccc3[nH]nc(-c4cc(N5CCC(CN6C[C@@H]7C[C@H]6CN7CC6CCN(c7ccc8c(c7F)CN(C7CCC(=O)NC7=O)C8=O)CC6)CC5)ncn4)c3c2)CC1 (stereo partly shown)	< 10 nM
CC1(Oc2cc3c(-c4cc(N5CCC(CN6CCN(CC7(F)CCN(c8ccc9c(c8F)CN(C8CCC(=O)NC8=O)C9=O)CC7)CC6)CC5)ncn4)[nH]nc3cc2F)CC1 (stereo not shown)	< 10 nM
COc1c(N2CCC(CN3CCN(CC4CCN(c5cc(-c6n[nH]c7ccc(OC8(C)CC8)cc67)ncn5)CC4)C(C)(C)C3)CC2)ccc2c1CN(C1CCC(=O)NC1=O)C2=O (stereo not shown)	< 10 nM

Req: Give its DC50 value. Item: CC1(Oc2cc3c(-c4cc(N5CCC(O[C@H]6C[C@H](OC7CCN(c8ccc9c(c8F)CN(C8CCC(=O)NC8=O)C9=O)CC7)C6)CC5)ncn4)n[nH]c3cn2)CC1 (stereo partly shown)
Resp: < 10 nM

Req: Give its DC50 value. Item: CC1(Oc2ccc3[nH]nc(-c4cc(N5CCC(OCCN6CCC7(CN(c8ccc9c(c8F)CN(C8CCC(=O)NC8=O)C9=O)C7)C(F)(F)C6)CC5)ncn4)c3c2)CC1 (stereo not shown)
Resp: < 10 nM
